Molecular target: SRSF protein kinase 1 (Homo sapiens) (UniProt Q96SB4)
Sequence (Q96SB4 whole entry): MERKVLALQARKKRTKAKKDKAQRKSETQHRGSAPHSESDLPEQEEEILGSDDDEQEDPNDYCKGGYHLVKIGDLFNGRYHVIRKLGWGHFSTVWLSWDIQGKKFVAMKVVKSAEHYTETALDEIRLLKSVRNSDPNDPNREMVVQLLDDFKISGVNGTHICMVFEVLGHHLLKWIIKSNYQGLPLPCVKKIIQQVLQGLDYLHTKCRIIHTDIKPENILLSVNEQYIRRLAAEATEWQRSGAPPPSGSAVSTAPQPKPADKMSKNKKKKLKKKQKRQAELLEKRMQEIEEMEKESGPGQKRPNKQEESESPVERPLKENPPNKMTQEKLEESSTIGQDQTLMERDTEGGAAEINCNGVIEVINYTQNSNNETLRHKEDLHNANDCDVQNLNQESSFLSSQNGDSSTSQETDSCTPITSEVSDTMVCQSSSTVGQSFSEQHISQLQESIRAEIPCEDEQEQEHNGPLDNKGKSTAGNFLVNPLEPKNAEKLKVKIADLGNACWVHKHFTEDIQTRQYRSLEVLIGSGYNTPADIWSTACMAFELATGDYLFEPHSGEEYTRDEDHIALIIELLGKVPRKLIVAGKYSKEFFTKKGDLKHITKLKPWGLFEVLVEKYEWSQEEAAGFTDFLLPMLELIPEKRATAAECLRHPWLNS
Settings: at 0.1 µM
measured-property: inhibition
Include the unit after the number when you answer.

given-smiles: COc1ccc(-c2oc3ncnc(N)c3c2-c2ccc(NC(=O)Nc3cc(C(F)(F)F)ccc3F)cc2)cc1
target-of-assay: SRSF protein kinase 1 (Homo sapiens) (UniProt Q96SB4)
inhibition: 1.18%
--
given-smiles: Fc1ccc(-c2nn3ccccc3c2-c2ccncc2)cc1
target-of-assay: SRSF protein kinase 1 (Homo sapiens) (UniProt Q96SB4)
inhibition: -2.12%
--
given-smiles: Clc1ccc(-c2nn3ncccc3c2-c2ccnc(Nc3ccccc3)n2)cc1
target-of-assay: SRSF protein kinase 1 (Homo sapiens) (UniProt Q96SB4)
inhibition: -1.15%
--
given-smiles: CN(C)CCOc1ccc(-c2nc(-c3ccncc3)c(-c3ccc4c(c3)CC/C4=N\O)[nH]2)cc1
target-of-assay: SRSF protein kinase 1 (Homo sapiens) (UniProt Q96SB4)
inhibition: -0.47%
--
given-smiles: Cc1ccc2c(-c3ccnc(Nc4ccccc4)n3)c(-c3ccc(F)cc3)nn2n1
target-of-assay: SRSF protein kinase 1 (Homo sapiens) (UniProt Q96SB4)
inhibition: -1.57%
--
given-smiles: Nc1nc(-c2ccc(F)cc2)c(-c2ccc3ncccc3n2)s1
target-of-assay: SRSF protein kinase 1 (Homo sapiens) (UniProt Q96SB4);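 note: values are mean percent inhibition of SRPK1 kinase, measured in the GSK PKIS screening panel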
inhibition: -1.42%

Need inhibition for each of these compounds.
1. CC(=O)NCc1cccc(C#Cc2cncnc2Nc2ccc(OCc3cccc(F)c3)c(Cl)c2)c1
2. Fc1ccc(-c2cc(-c3c[nH]nc3-c3ccccn3)ccn2)cc1
3. CS(=O)(=O)CCNCc1ccc(-c2ccc3ncnc(Nc4ccc(OCc5ccccc5)c(C(F)(F)F)c4)c3c2)o1
4. COc1ccc(-c2cc(-c3c[nH]nc3-c3ccccn3)ccn2)cc1

1. -0.72%
2. -0.82%
3. -2.41%
4. -1.02%

# per-item lookup of inhibition; items listed below
1. NS(=O)(=O)c1ccc(N/N=C2\C(=O)Nc3ccc4ncccc4c32)cc1
2. Fc1cccc(COc2ccc(Nc3ncnc4sc(-c5ccco5)cc34)cc2Cl)c1
3. CN1CCC(n2cnc(-c3ccc(F)cc3)c2-c2ccnc(Nc3ccccc3)n2)CC1
4. c1ccc(COc2ccc(Nc3ncnc4ccc(-c5ccco5)cc34)cc2)cc1
5. COc1cc(/C=N/Nc2ncnc3[nH]ncc23)ccc1O

-3.05%
-1.79%
-1.25%
-1.86%
-1.89%
